Experiment: Total AUC in healthy human (6 volunteers) at 1 g, po administered as single dose by gas liquid chromatography
Format: ADME, organism-based
Parameters: dose 1 g, time AUCmax, route oral
Details: in vivo
parameter: AUC (µg·h/mL)
Output spec: scalar in µg·h/mL, unitless text.

[Q] # return recorded AUC for entry CCCC(CCC)C(=O)[O-].[Na+] [VALPROATE SODIUM]
[A] 2120

* * *

Test: Fraction unbound in healthy human (6 volunteers) serum at 1 g, po administered as single dose measured after 12 hrs
Assay type: ADME, organism-based
parameter: fraction unbound at 12 h
When you answer, write just the number.

[Q] Look up and state reported fraction unbound at 12 h for CCCC(CCC)C(=O)[O-].[Na+] [VALPROATE SODIUM]
[A] 0.037
